Data credit: the supplement of paper PMC8728848

TEST SYSTEM: Gal4S6S(b1-4)GlcNAc
TEST DETAILS: glycan array binding signal (z-score within array); higher = stronger binding
CONDITIONS: glycan notation: IUPAC condensed, linker removed
About 410 targets per protein were measured; listed, in parts, are those with the strongest signals and a random draw of the rest.
Provide the reported glycan array binding signal (z-score) of each item.
Numbers only.

{"columns": ["BINDER", "glycan array binding signal (z-score)"],
 "data": [
  ["FliC (Clostridium difficile) (protein) MRVNTNVSALIANNQMGRNVNGQSKSMEKLSSGVRIKRAADDAAGLAISEKMRAQIKGLDQAGRNVQDGISVVQTAEGSLEETGNILQRMRTLSLQSANEINNTEEREKIADELTQLKDEIERISSSTEFNGKKLLDGTSSTIRLQVGASYGTNVSGTSNNNNEIKIQLVNTASIMASAGITTASIGSMKAGGTTGTDAAKTMVSSLDAALKSLNSSRAKLGAQQNRLESTQNNLNNTLENVTAAESRIRDTDVASEMVNLSKMNILVQASQSMLAQANQQPQGVLQLLG", -0.316]
]}

Then there is this binder:
Query glycan array binding signal (z-score) for F17fG (Escherichia coli), Q9RH91 (protein) MTNFYKVFLAVFILVCCNISHAAVSFIGSTENDVGPSQGSYSSTHAMDNLPFVYNTGHNIGYQNANVWRISGGFCVGLDGKVDLPVVGSLDGQSIYGLTEEVGLLIWMGDTNYSRGTAMSGNSWENVFSGWCVGNYVSTQGLSVHVRPVILKRNSSAQYSVQKTSIGSIRMRPYNGSSAGSVQTTVNFSLNPFTLNDTVTSCRLLTPSAVNVSLAAISAGQLPSSGDEVVAGTTSLKLQCDAGVTVWATLTDATTPSNRSDILTLTGASTATGVGLRIYKNTDSTPLKFGPDSPVKGNENQWQLSTGTETSPSVRLYVKYVNTGEGINPGTVNGISTFTFSYQ
0.026
